assay: in vivo; settings: mouse, oral, male ddY-strain mice, 7 days
Counter-ions that a name gives are not always drawn.
PARAMETER MEASURED: LD50 at 168 h

In: LD50 at 168 h for CC(C)c1cc2c(cc1S(=O)(=O)O)[C@@]1(C)CCC[C@@](C)(C(=O)O)[C@@H]1CC2 [Sulfodehydroabietic acid calcium salt, hydrate] ?
Out: > 2000 mg/kg

* * *

assay: Acute oral toxicity in rats (Experiment 10); type: in vivo; settings: rat, in vivo, male SD-strain rats, 7 days
Counter-ions that a name gives are not always drawn.
PARAMETER MEASURED: LD50 at 168 h

In: LD50 at 168 h for CC(C)c1cc2c(cc1S(=O)(=O)O)[C@@]1(C)CCC[C@@](C)(C(=O)O)[C@@H]1CC2 [Sulfodehydroabietic acid monosodium salt, hydrate] ?
Out: > 2000 mg/kg
